Substrate: O=C(O)C(=O)CC(O)C(=O)O
method_summary: purified protein
Format: biochemical, Homo sapiens
test_settings: racemic HOG, 100 mM TRIS pH 8.5, 37°C, aldol cleavage
reported_metric: kcat
Quick note: unit goes after the number.

*Q* For human HOGA (hHOGA) (Homo sapiens; S77V) (protein, His-tag (WT, Y140F) cleavable by PreScission leaving GPH, 33,097 Da tag-free; S77, N78 and S198 mutants as MBP fusion, MBP cleaved; tetramer) ASGEGKKVDIAGIYPPVTTPFTATAEVDYGKLEENLHKLGTFPFRGFVVQGVNGEFPFLTSSERLEVVSRVRQAMPKNRLLLAGSGCESTQATVEMTVSMAQVGADAAMVVTPCYYRGRMSSAALIHHYTKVADLSPIPVVLYSVPANTGLDLPVDAVVTLSQHPNIVGMKDSGGDVTRIGLIVHKTRKQDFQVLAGSAGFLMASYALGAVGGVCALANVLGAQVCQLERLCCTGQWEDAQKLQHRLIEPNAAVTRRFGIPGLKKIMDWFGYYGGPCRAPLQELSPAEEEALRMDFTSNGWL , what is its reported kcat?
*A* 1.2 s⁻¹
